System: wheat
Assay: Test B pre/postemergence wheat
Assay type: in vivo, Triticum aestivum
Details: Preemergence, Rate 62 g/ha; scale 0 to 10 (0 no effect, 10 complete control)
Below, each entry is listed with its recorded Wheat plant response rating.
Answer using only a numeral; do not append any unit.

> print(dat)
                                   molecule  endpoint.value
1  CC(C)N(C(=O)n1oc(=O)n(CCC(F)(F)F)c1=O)c1ccc(Cl)cc1 [Compound 554]               3

Query block: Please state recorded Wheat plant response rating (tested on wheat) of Cc1ccc(N(C(=O)n2oc(=O)n(C(C)C)c2=O)C(C)C)cc1 [Compound 132]
Result block: 0

Query block: Please state recorded Wheat plant response rating (tested on wheat) of COCn1c(=O)on(C(=O)N(c2ccccc2)C(C)C)c1=O [Compound 562]
Result block: 3

Query block: Please state recorded Wheat plant response rating (tested on wheat) of CCCCCCn1c(=O)on(C(=O)N(c2ccccc2)C(C)C)c1=O [Compound 558]
Result block: 0

Query block: Please state recorded Wheat plant response rating (tested on wheat) of Cc1cccc(C(C)C)c1-n1c(=O)on(C(=O)N(c2ccccc2)C(C)C)c1=O [Compound 66]
Result block: 0

Query block: Please state recorded Wheat plant response rating (tested on wheat) of C=CCn1c(=O)on(C(=O)N(c2ccc(F)cc2)C(C)C)c1=O [Compound 146]
Result block: 2

Query block: Please state recorded Wheat plant response rating (tested on wheat) of Cc1ccccc1-n1c(=O)on(C(=O)N(Cc2ccccc2)C(C)C)c1=O [Compound 72]
Result block: 0

Query block: Please state recorded Wheat plant response rating (tested on wheat) of CCCCn1c(=O)on(C(=O)N(c2ccccc2)C(C)C)c1=O [Compound 556]
Result block: 0

Query block: Please state recorded Wheat plant response rating (tested on wheat) of CC(C)N(C(=O)n1oc(=O)n(C)c1=O)c1ccc(Cl)cc1 [Compound 137]
Result block: 0

Query block: Please state recorded Wheat plant response rating (tested on wheat) of CCOC(=O)CC(C(=O)OCC)n1c(=O)on(C(=O)N(c2ccc(F)cc2)C(C)C)c1=O (stereo not shown) [Compound 615]
Result block: 0
